target: Voltage-gated inwardly rectifying potassium channel KCNH2 (Homo sapiens, UniProt Q12809); assay: Inhibition of human ERG expressed in mammalian cells by patch clamp method; format: cell-based
reportedProperty: IC50

For record COc1ccc2nccc([C@@H](O)CC[C@@H]3CCN(CCSc4ccco4)C[C@@H]3C(=O)O)c2c1 (mixture of isomers) the listed IC50 is < 30 µM

* * *

# reported MIC; entries follow
test system: Staphylococcus aureus; assay: Antibacterial activity against fluoroquinolone resistant Staphylococcus aureus 1-FQR2M BK2384 expressing GyrA Ser84Leu mutant and GrlA Ser80Phe mutant; type: functional
Just the number please, in µg/mL, no unit attached.

Previously resolved entries follow.
molecule	assayTarget	MIC [µg/mL]
COc1ccc2nccc([C@H](O)CC[C@@H]3CCN(CCSc4cccs4)C[C@@H]3C(=O)O)c2c1 (mixture of isomers)	Staphylococcus aureus	1
COc1ccc2nccc([C@@H](O)CC[C@@H]3CCN(CCSc4cccs4)C[C@@H]3C(=O)O)c2c1 (mixture of isomers)	Staphylococcus aureus	0.25
COc1ccc2nccc([C@H](O)CC[C@@H]3CCN(CCSc4ccco4)C[C@@H]3C(=O)O)c2c1 (mixture of isomers)	Staphylococcus aureus	8

Response field MIC (Staphylococcus aureus) for item CO/N=C1\CN(c2nc3c(cc2F)c(=O)c(C(=O)O)cn3C2CC2)CC1CN (centres undefined) : 1

* * *

target: DNA gyrase (Staphylococcus aureus, UniProt P0A0K8+P20831); test: Inhibition of Staphylococcus aureus DNA gyrase by supercoiling assay
reportedProperty: IC50 (µM)
Number only, in µM; omit the unit.

See these solved cases before continuing.
compound	assayTarget	unitInfo	IC50
COc1ccc2nccc([C@@H](O)CC[C@@H]3CCN(CCSc4ccc(C(F)F)[se]4)C[C@@H]3C(=O)O)c2c1 (mixture of isomers)	DNA gyrase (Staphylococcus aureus, UniProt P0A0K8+P20831)	µM	21.2
COc1ccc2nccc([C@@H](O)CC[C@@H]3CCN(CCSc4ccc(C#N)[se]4)C[C@@H]3C(=O)O)c2c1 (mixture of isomers)	DNA gyrase (Staphylococcus aureus, UniProt P0A0K8+P20831)	µM	36.6

In the following, a different compound is considered.
In plain terms, COc1ccc2nccc([C@H](O)CC[C@@H]3CCN(CCSc4cccs4)C[C@@H]3C(=O)O)c2c1 (mixture of isomers) has a documented IC50 of 3.3

* * *

test: Cytotoxicity against human Hep2 cell line after 72 hrs; assay type: cell-based; conditions: HEp-2 cells
reportedProperty: CC50 at 72 h

Reference set, count: 3
compound	observedValue
COc1ccc2nccc([C@@H](O)CC[C@@H]3CCN(CCSc4ccc(C(F)F)[se]4)C[C@@H]3C(=O)O)c2c1 (mixture of isomers)	39 µM
COc1ccc2nccc([C@H](O)CC[C@@H]3CCN(CCSc4sccc4P(=O)(OC(C)C)OC(C)C)C[C@@H]3C(=O)O)c2c1 (mixture of isomers)	34 µM
COc1ccc2nccc([C@@H](O)CC[C@@H]3CCN(CCSc4cccs4)C[C@@H]3C(=O)O)c2c1 (mixture of isomers)	> 100 µM

CC50 at 72 h measured on COc1ccc2nccc([C@@H](O)CC[C@@H]3CCN(CCS(=O)(=O)c4ccc[se]4)C[C@@H]3C(=O)O)c2c1 (mixture of isomers) = > 100 µM

Kindly note the recorded CC50 at 72 h for O=C(O)c1cn(C2CC2)c2cc(N3CCNCC3)c(F)cc2c1=O , which is > 100 µM

Form field CC50 at 72 h, entry COc1ccc2nccc([C@@H](O)CC[C@@H]3CCN(CCSc4ccc[se]4)C[C@@H]3C(=O)O)c2c1 (mixture of isomers) : > 100 µM

Note to self: CC50 at 72 h recorded for COc1ccc2nccc(C(O)CC[C@@H]3CCN(CCSc4ccc(C(=O)O)[se]4)C[C@@H]3C(=O)O)c2c1 (mixture of isomers) was > 100 µM

Note to self: CC50 at 72 h recorded for COc1ccc2nccc([C@@H](O)CC[C@@H]3CCN(CCSc4ccco4)C[C@@H]3C(=O)O)c2c1 (mixture of isomers) was > 100 µM

* * *

system: Staphylococcus aureus; experiment: Antibacterial activity against fluoroquinolone resistant Staphylococcus aureus 5-FQR4M BSA678 expressing GyrA Ser84Leu and Ser85Pro mutant and GrlA Ser80Phe and Glu84Lys mutant; assay type: functional
# maps each entry to its log10 MIC
Would you kindly interpret these values as log10 of MIC expressed in µg/mL?

Guide cases for log10 MIC, answers given:
compound	log10 MIC
COc1ccc2nccc([C@@H](O)CC[C@@H]3CCN(CCSc4cccs4)C[C@@H]3C(=O)O)c2c1 (mixture of isomers)	-0.30
O=C(O)c1cn(C2CC2)c2cc(N3CCNCC3)c(F)cc2c1=O	2.11
COc1ccc2nccc([C@H](O)CC[C@@H]3CCN(CCSc4cccs4)C[C@@H]3C(=O)O)c2c1 (mixture of isomers)	0.60
COc1ccc2nccc([C@@H](O)CC[C@@H]3CCN(CCSc4ccco4)C[C@@H]3C(=O)O)c2c1 (mixture of isomers)	0.90
CO/N=C1\CN(c2nc3c(cc2F)c(=O)c(C(=O)O)cn3C2CC2)CC1CN (centres undefined)	1.81
COc1ccc2nccc([C@H](O)CC[C@@H]3CCN(CCSc4ccco4)C[C@@H]3C(=O)O)c2c1 (mixture of isomers)	1.51

The value of log10 MIC measured for the compound COc1ccc2nccc([C@H](O)CC[C@@H]3CCN(CCSc4ccc[se]4)C[C@@H]3C(=O)O)c2c1 (mixture of isomers) turned out to be 0.30

Please fill in: log10 MIC reported for COc1ccc2nccc([C@@H](O)CC[C@@H]3CCN(CCSc4ccc[se]4)C[C@@H]3C(=O)O)c2c1 (mixture of isomers) = 0.00

* * *

Measured CC50 at 72 h of individual entries
test: Cytotoxicity against human HepG2 cell line after 72 hrs; format: cell-based; details: HepG2 cells

Consider the following illustrative entries.
molecule	observedValue
COc1ccc2nccc([C@H](O)CC[C@@H]3CCN(CCSc4ccc[se]4)C[C@@H]3C(=O)O)c2c1 (mixture of isomers)	> 100 µM
COc1ccc2nccc([C@@H](O)CC[C@@H]3CCN(CCSc4ccc[se]4)C[C@@H]3C(=O)O)c2c1 (mixture of isomers)	> 100 µM
COc1ccc2nccc([C@H](O)CC[C@@H]3CCN(CCSc4cccs4)C[C@@H]3C(=O)O)c2c1 (mixture of isomers)	> 100 µM
COc1ccc2nccc([C@@H](O)CC[C@@H]3CCN(CCSc4ccco4)C[C@@H]3C(=O)O)c2c1 (mixture of isomers)	> 100 µM
COc1ccc2nccc([C@@H](O)CC[C@@H]3CCN(CCSc4cccs4)C[C@@H]3C(=O)O)c2c1 (mixture of isomers)	> 100 µM

Item: COc1ccc2nccc([C@H](O)CC[C@@H]3CCN(CCSc4ccco4)C[C@@H]3C(=O)O)c2c1 (mixture of isomers) | CC50 at 72 h: > 100 µM

* * *

Parameter: pIC50. Scope: all listed entries.
target: DNA gyrase (Staphylococcus aureus, UniProt P0A0K8+P20831); test: Inhibition of Staphylococcus aureus DNA gyrase by supercoiling assay
Keep in mind that pIC50 stands for -log10 of concentration in molar terms.

Memo: COc1ccc2nccc([C@H](O)CC[C@@H]3CCN(CCSc4ccco4)C[C@@H]3C(=O)O)c2c1 (mixture of isomers) , reported pIC50: 4.99

For this compound ( COc1ccc2nccc([C@@H](O)CC[C@@H]3CCN(CCSc4ccco4)C[C@@H]3C(=O)O)c2c1 (mixture of isomers) ), measured pIC50 is 5.33

Record COc1ccc2nccc([C@@H](O)CC[C@@H]3CCN(CCSc4cccs4)C[C@@H]3C(=O)O)c2c1 (mixture of isomers) , field pIC50: 5.85

The measured pIC50 associated with COc1ccc2nccc(C(O)CC[C@@H]3CCN(CCC(=O)N4CCCCC4)C[C@@H]3C(=O)O)c2c1 (mixture of isomers) reads 4.97

Consider COc1ccc2nccc([C@H](O)CC[C@@H]3CCN(CCSc4ccc[se]4)C[C@@H]3C(=O)O)c2c1 (mixture of isomers) . Its measured pIC50 is 6.15

Query COc1ccc2nccc([C@H](O)CC[C@@H]3CCN(CCSc4ccc(C=O)[se]4)C[C@@H]3C(=O)O)c2c1 (mixture of isomers) yields pIC50 of 5.05

Per the records, this compound ( COc1ccc2nccc([C@@H](O)CC[C@@H]3CCN(CCSc4ccc[se]4)C[C@@H]3C(=O)O)c2c1 (mixture of isomers) ) has pIC50 equal to 6.40

* * *

tested on: Staphylococcus aureus; experiment: Antibacterial activity against fluoroquinolone resistant Staphylococcus aureus 1-FQR2M BK2384 expressing GyrA Ser84Leu mutant and GrlA Ser80Phe mutant; format: functional
Readings of MIC for the listed compounds
Value expressed in mg/L; do not type the unit.

Some compounds with recorded MIC:
compound	MIC [mg/L]
COc1c(N2C[C@@H]3CCCN[C@@H]3C2)c(F)cc2c(=O)c(C(=O)O)cn(C3CC3)c12	1
O=C(O)c1cn(C2CC2)c2cc(N3CCNCC3)c(F)cc2c1=O	64
COc1ccc2nccc([C@@H](O)CC[C@@H]3CCN(CCSc4ccc[se]4)C[C@@H]3C(=O)O)c2c1 (mixture of isomers)	0.25

Lab note: COc1ccc2nccc([C@@H](O)CC[C@@H]3CCN(CCSc4ccco4)C[C@@H]3C(=O)O)c2c1 (mixture of isomers) gave MIC of 4

The compound COc1ccc2nccc([C@H](O)CC[C@@H]3CCN(CCSc4ccc[se]4)C[C@@H]3C(=O)O)c2c1 (mixture of isomers) showed MIC equal to 1
